B1: PTPRD (parent)
chain: FICQATGDPRPKIVWNKKGKKVSN

Variants of: B1
assay-notes: protein stability index of a GFP-peptide fusion (GPS, HEK-293T) (PSI 1-6); higher = more stable;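 also: lentivirally expressed fusions sorted by FACS into six bins by GFP to DsRed ratio, PSI derived from sequencing read proportions per bin multiplied by bin number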
condition-parameters: c terminus: a fixed tail appended
measurement-kind: protein stability index

INSERT INTO results (mutant, numeric_result) VALUES
  ('I13A', 1.83),
  ('I2G', 4.1),
  ('N16Q', 2.56),
  ('S23F', 2.31),
  ('G7Y', 1.7),
  ('V22K', 2.66),
  ('T6P', 1.96),
  ('K12P', 1.96),
  ('R10H', 1.79),
  ('K21H', 1.95),
  ('S23G', 2.28),
  ('N16E', 2.75),
  ('K21N', 2.17),
  ('F1V', 2.75),
  ('D8L', 1.5),
  ('K12D', 1.18),
  ('I2Q', 2.83),
  ('S23Q', 2.07),
  ('K12G', 2.28),
  ('K18W', 2.01),
  ('K21F', 1.61),
  ('K12Q', 1.94);
